assay_target: T1, mouse PCSK9 (mouse, UniProt Q80W65 35-694, limits assumed)
T1 construct: also called mPCSK9; msPCK9
T1 sequence (Q80W65 35-694 limits assumed): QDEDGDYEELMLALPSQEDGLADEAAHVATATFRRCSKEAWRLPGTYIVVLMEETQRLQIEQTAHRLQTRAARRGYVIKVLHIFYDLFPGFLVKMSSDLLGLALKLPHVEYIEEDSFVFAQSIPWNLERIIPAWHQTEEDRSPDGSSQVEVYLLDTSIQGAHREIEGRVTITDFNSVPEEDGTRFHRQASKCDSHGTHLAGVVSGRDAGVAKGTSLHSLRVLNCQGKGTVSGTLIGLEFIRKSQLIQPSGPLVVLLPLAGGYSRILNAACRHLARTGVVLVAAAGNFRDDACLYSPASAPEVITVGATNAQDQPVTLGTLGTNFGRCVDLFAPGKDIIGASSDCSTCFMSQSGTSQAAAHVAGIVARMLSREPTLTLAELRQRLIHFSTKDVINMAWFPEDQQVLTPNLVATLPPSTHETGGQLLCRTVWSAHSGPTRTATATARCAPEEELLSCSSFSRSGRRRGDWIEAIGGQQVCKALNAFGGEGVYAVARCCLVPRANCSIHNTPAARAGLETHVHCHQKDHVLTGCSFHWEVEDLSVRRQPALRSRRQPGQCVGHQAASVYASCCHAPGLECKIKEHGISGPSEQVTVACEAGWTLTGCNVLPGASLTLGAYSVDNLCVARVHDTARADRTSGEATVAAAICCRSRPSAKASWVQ
assay_explanation: SPR Biacore 3000, captured IgG, mPCSK9 injected, pH 7.4
measurement_kind: Kd (nM)

1. 5L1721H23_6L3H3 (antibody, V domains shown, Tested as full-length IgG; also called heavy UC-H5H23-6H3, light UC-H5L1721-6L3) VH: QVQLVQSGAEVKKPGASVKVSCKASGYTFTSYYMHWVRQAPGQGLEWMGEIHPSGGRTNYNEKFKSRVTMTRDTSTSTVYMELSSLRSEDTAVYYCARERPLYASDLWGQGTTVTVSS VL: DIQMTQSPSSLSASVGDRVTITCKASQDVHTAVAWYQQKPGKAPKLLIYHASYRYTGVPSRFSGSGSGTDFTFTISSLQPEDIATYYCQQRYSLWRTFGQGTKLEIK ... 8.1
2. 5L1721H23_6L3 (antibody, V domains shown, Tested as full-length IgG; also called heavy UC-H5H23, light UC-H5L1721-6L3) VH: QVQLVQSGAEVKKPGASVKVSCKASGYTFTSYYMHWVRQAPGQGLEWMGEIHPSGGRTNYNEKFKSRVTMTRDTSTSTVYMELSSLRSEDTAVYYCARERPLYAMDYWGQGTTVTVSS VL: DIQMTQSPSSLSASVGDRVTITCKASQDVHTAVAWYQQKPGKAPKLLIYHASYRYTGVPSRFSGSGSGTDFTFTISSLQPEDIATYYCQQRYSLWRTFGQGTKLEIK ... 14
3. 5L1721H23_6H3 (antibody, V domains shown, Only CDRs printed; Full-length IgG) VH: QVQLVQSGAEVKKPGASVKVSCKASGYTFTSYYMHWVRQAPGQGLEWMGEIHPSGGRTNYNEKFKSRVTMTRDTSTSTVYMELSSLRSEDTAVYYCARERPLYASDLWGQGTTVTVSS VL: DIQMTQSPSSLSASVGDRVTITCKASQDVHTAVAWYQQKPGKAPKLLIYHASYRYTGVPSRFSGSGSGTDFTFTISSLQPEDIATYYCQQRYSTPRTFGQGTKLEIK ... 8
